Measured values drawn from ChEMBL document CHEMBL1139241 for this set.

Item-by-item account of pKi
Target sequence: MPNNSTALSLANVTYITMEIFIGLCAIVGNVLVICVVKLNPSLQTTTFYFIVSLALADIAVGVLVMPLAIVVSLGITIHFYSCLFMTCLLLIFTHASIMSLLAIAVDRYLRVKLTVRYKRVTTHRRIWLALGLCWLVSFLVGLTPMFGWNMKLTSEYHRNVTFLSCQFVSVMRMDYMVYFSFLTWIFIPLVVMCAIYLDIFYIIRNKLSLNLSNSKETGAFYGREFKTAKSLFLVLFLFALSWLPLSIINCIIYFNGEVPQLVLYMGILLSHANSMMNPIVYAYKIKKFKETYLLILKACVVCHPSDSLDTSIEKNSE
pKi: −log10 of the molar value.

[
  {
    "MOL SMILES": "Cc1cn2c(nc3c2c(=O)[nH]c(=O)n3Cc2ccccc2)[nH]1",
    "BOUND OPERATOR": "=",
    "pKi": 6.83
  },
  {
    "MOL SMILES": "Cc1cn2c(nc3c2c(=O)n(CCN(C)C)c(=O)n3Cc2ccccc2)[nH]1",
    "BOUND OPERATOR": "=",
    "pKi": 7.01
  },
  {
    "MOL SMILES": "CCn1c(C)cn2c3c(=O)[nH]c(=O)n(Cc4ccccc4)c3nc12",
    "BOUND OPERATOR": "<",
    "pKi": 6.00
  },
  {
    "MOL SMILES": "CCCn1c(=O)c2c(nc3[nH]c(C)cn32)n(Cc2ccccn2)c1=O",
    "BOUND OPERATOR": "=",
    "pKi": 7.47
  },
  {
    "MOL SMILES": "CCCn1c(=O)c2c(nc3[nH]c(C)cn32)n(Cc2ccncc2)c1=O",
    "BOUND OPERATOR": "=",
    "pKi": 6.85
  },
  {
    "MOL SMILES": "CC(=O)Cn1c(=O)c2c(nc3[nH]c(C)cn32)n(Cc2ccccc2)c1=O",
    "BOUND OPERATOR": "=",
    "pKi": 6.74
  },
  {
    "MOL SMILES": "CCCn1c(=O)c2c(nc3n(CC)c(C)cn23)n(Cc2ccccc2)c1=O",
    "BOUND OPERATOR": "=",
    "pKi": 6.70
  }
]

====

Entries and their pKi
Target: Adenosine receptor A1 (Homo sapiens)
Sequence (P30542 whole entry): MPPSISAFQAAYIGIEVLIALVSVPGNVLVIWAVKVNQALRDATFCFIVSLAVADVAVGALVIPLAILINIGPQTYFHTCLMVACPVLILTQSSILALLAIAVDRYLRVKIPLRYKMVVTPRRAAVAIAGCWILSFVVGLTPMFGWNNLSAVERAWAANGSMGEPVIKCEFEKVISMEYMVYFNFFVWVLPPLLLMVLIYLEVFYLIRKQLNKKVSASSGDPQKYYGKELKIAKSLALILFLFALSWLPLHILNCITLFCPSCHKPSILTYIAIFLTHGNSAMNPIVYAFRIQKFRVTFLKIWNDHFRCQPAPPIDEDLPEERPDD
Assay: Displacement of [3H]DPCPX from human cloned adenosine A1 receptor expressed in CHO cells
Format: cell-based
pKi: −log10 of the molar value.
MEASURE: pKi

[
  {
    "MOL SMILES": "CCOC(=O)Cn1c(=O)c2c(nc3[nH]c(C)cn32)n(Cc2ccccc2)c1=O",
    "RESULT": "< 6.00"
  },
  {
    "MOL SMILES": "Cc1cn2c(nc3c2c(=O)n(CCN(C)C)c(=O)n3Cc2ccccc2)[nH]1",
    "RESULT": "< 6.00"
  },
  {
    "MOL SMILES": "C#CCn1c(=O)c2c(nc3[nH]c(C)cn32)n(Cc2ccccc2)c1=O",
    "RESULT": "< 6.00"
  },
  {
    "MOL SMILES": "CC(=O)Cn1c(=O)c2c(nc3[nH]c(C)cn32)n(Cc2ccccc2)c1=O",
    "RESULT": "< 6.00"
  },
  {
    "MOL SMILES": "Cc1cn2c(nc3c2c(=O)[nH]c(=O)n3Cc2ccccc2)[nH]1",
    "RESULT": "< 6.00"
  }
]
